# credit: the supplement of paper PMC10981050

# System: OCI-AML2
# TEST DETAILS: cell viability relative to vehicle control; higher = less cytotoxic;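 note: after 48 h exposure read by CellTiter-Glo luminescence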
# APPLIED CONDITIONS: 10 µM; SRSF2 genotype: wt/wt
// cell viability lookup, one value per entry
Be sure to follow the number with its unit.

Would you please look over these solved cases?
# COMPOUND, cell viability
measured = [
    ("CCCc1cc(C(N)=S)ccn1 [Protionamide (Prothionamide)]", "112%"),
    ("COc1cc(/C=C/C(=O)CC(=O)/C=C/c2ccc(O)c(OC)c2)ccc1O", "69.3%"),
    ("Cc1nc2n(c(=O)c1CCN1CCC(c3noc4cc(F)ccc34)CC1)CCCC2O (centres undefined)", "91.2%"),
]

Continue with the next compound.
Return cell viability measured with OCI-AML2 given this compound: `O=C(/C=C/c1ccc2ccccc2n1)c1ccncc1`
0.36%

###

# System: K562
# TEST DETAILS: cell viability relative to vehicle control; higher = less cytotoxic
# APPLIED CONDITIONS: 10 µM; SRSF2 genotype: SRSF2 wt/wt
Counter-ions that a name gives are not always drawn.
// cell viability lookup, one value per entry
Please state the figure in %; there is no need to write the unit.

# MOLECULE, cell viability [%]
data = [
    ("COc1ccc(C(NC(=O)c2cnc(-c3cccnn3)[nH]c2=O)c2ccc(OC)cc2)cc1", 111),
]

Which cell viability reading was recorded for the molecule CCCOc1ccc(C(=O)OCCN(CC)CC)cc1N [Proparacaine HCl] ?
99.5

Which cell viability reading was recorded for the molecule CC1(C)CC[C@]2(C(=O)O)CC[C@]3(C)C(=CC[C@@H]4[C@@]5(C)CC[C@H](O)[C@@](C)(CO)[C@@H]5CC[C@]43C)[C@@H]2C1 [Hederagenin] ?
97.1

###

// cell viability lookup, one value per entry
# Test system: MOLM14
# TEST DETAILS: cell viability relative to vehicle control; higher = less cytotoxic
# APPLIED CONDITIONS: 10 µM; SRSF2 genotype: SRSF2 wt/wt
Please state the figure in %; there is no need to write the unit.

# COMPOUND, QUANTITY KIND, REPORTED VALUE
rows = [
    ("Cc1ccc(S(=O)(=O)OCC(=O)Nc2ccc(C(=O)O)c(O)c2)cc1", "cell viability", 101),
]

Return cell viability measured with MOLM14 given this compound: `CC/C(=C(/CC)c1ccc(O)cc1)c1ccc(O)cc1`
87.8

Return cell viability measured with MOLM14 given this compound: `CN(C)CC[C@H](CSc1ccccc1)Nc1ccc(S(=O)(=O)NC(=O)c2ccc(N3CCN(Cc4ccccc4-c4ccc(Cl)cc4)CC3)cc2)cc1[N+](=O)[O-]`
2

###

// cell viability lookup, one value per entry
# Test system: MARIMO
# TEST DETAILS: cell viability relative to vehicle control; higher = less cytotoxic
# APPLIED CONDITIONS: 10 µM; SRSF2 genotype: SRSF2 wt/wt
Please state the figure in %; there is no need to write the unit.

Would you please look over these solved cases?
# COMPOUND, QUANTITY KIND, REPORTED VALUE
measured = [
    ("CC1=C(C(=O)Nc2cc3cn[nH]c3cc2F)C(c2ccc(C(F)(F)F)cc2)CC(=O)N1 (stereo not given)", "cell viability", 98.6),
    ("O=C(CCCCCCC(=O)Nc1ccccc1)NO [Vorinostat (SAHA, MK0683)]", "cell viability", 8.5),
]

Which cell viability reading was recorded for the compound O=C(Nc1ccc(Cl)cc1)C1CCCN(C(=O)c2cccc(-c3ccco3)c2)C1 (stereo not given) ?
39.4

Which cell viability reading was recorded for the compound `COc1ccc(-c2cc(=O)c3c(O)cc(O[C@@H]4O[C@H](CO[C@@H]5O[C@@H](C)[C@H](O)[C@@H](O)[C@H]5O)[C@@H](O)[C@H](O)[C@H]4O)cc3o2)cc1O` ?
101

Which cell viability reading was recorded for the compound `CN1CCN(Cc2ccc(NC(=O)Nc3ccc(Oc4ccnc(N)n4)cc3)cc2C(F)(F)F)CC1` ?
2.68

Which cell viability reading was recorded for the compound `CCN=C1N[C@@H]2[C@@H](O)[C@H](O)[C@@H](CO)O[C@@H]2S1` ?
106

Which cell viability reading was recorded for the compound CCOC(=O)c1cc(O)c(O)c(O)c1 [Ethyl gallate] ?
88.3

Which cell viability reading was recorded for the compound CCOc1cc2ncc(C#N)c(Nc3ccc(F)c(Cl)c3)c2cc1NC(=O)/C=C/CN(C)C [Pelitinib (EKB-569)] ?
1.37

###

// cell viability lookup, one value per entry
# Tested on: MARIMO
# TEST DETAILS: cell viability relative to vehicle control; higher = less cytotoxic
# APPLIED CONDITIONS: 10 µM; SRSF2 genotype: SRSF2 P95H/wt
Structures can show the parent of a compound that is named as a salt.
Please state the figure in %; there is no need to write the unit.

Would you please look over these solved cases?
# MOLECULE, cell viability [%]
data = [
    ("Cc1cc(O)cc(O)c1", 100),
    ("CC1=C(C(=O)OC2CCCCC2)C(c2ccc([N+](=O)[O-])cc2)C2=C(CC(C)(C)CC2=O)N1 (stereo not drawn)", 84.3),
    ("Nc1[nH]cnc2ncnc1-2 [Adenine hydrochloride]", 98.5),
    ("CC1=CC(=O)NS(=O)(=O)O1", 98.1),
    ("Cc1cc2c(C(N)=O)cccc2n1-c1nc2c(c(NCc3ccccc3)n1)COCC2", 0.6),
]

Which cell viability reading was recorded for the molecule Cc1ccc2c(c1)C(=O)C1(O)CCN(c3ccccc3)C1=N2 (single isomer, unassigned; (-)) [(-)-Blebbistatin] ?
88.4

Which cell viability reading was recorded for the molecule `C/C(=C\C(=O)OCCCCCCCCC(=O)O)C[C@@H]1OC[C@H](C[C@@H]2O[C@H]2[C@@H](C)[C@H](C)O)[C@@H](O)[C@H]1O` ?
84.3

Which cell viability reading was recorded for the molecule `Cc1cc(SCc2sc(-c3ccc(C(F)(F)F)cc3)nc2C)ccc1OCC(=O)O` ?
92

###

# Tested on: K562
# TEST DETAILS: cell viability relative to vehicle control; higher = less cytotoxic
# APPLIED CONDITIONS: 10 µM; SRSF2 genotype: SRSF2 wt/wt
Where a name gives a salt, the structure may show the parent alone.
Label label 1 when cell viability is strictly below 90%; at or above that, label label 0.

Would you please look over these solved cases?
# COMPOUND, ASSIGNED CATEGORY
records = [
    ("O=C(NCCO[N+](=O)[O-])c1cccnc1", "label 0"),
    ("NS(=O)(=O)c1cc2c(cc1Cl)NC(C(Cl)Cl)NS2(=O)=O (stereo unspecified) [Trichlormethiazide (Achletin)]", "label 0"),
    ("Cc1cc(O)cc(OC2OC(CO)C(O)C(O)C2O)c1 (stereo unspecified) [Orcinol glucoside]", "label 0"),
]

API: query returns whether the compound falls strictly under 90% in cell viability. Query: `COc1ccc([C@@H]2CC(=O)c3c(O)cc(O[C@@H]4O[C@H](CO)[C@@H](O)[C@H](O)[C@H]4O[C@@H]4O[C@@H](C)[C@H](O)[C@@H](O)[C@H]4O)cc3O2)cc1O`
label 0

API: query returns whether the compound falls strictly under 90% in cell viability. Query: O=c1c(-c2ccc(O)cc2)coc2cc(O[C@@H]3O[C@H](CO)[C@@H](O)[C@H](O)[C@H]3O)cc(O)c12 [Genistin (Genistoside)]
label 0

API: query returns whether the compound falls strictly under 90% in cell viability. Query: `COc1ccc([C@@H]2CC(=O)c3c(O)cc(O[C@@H]4O[C@H](CO[C@@H]5O[C@@H](C)[C@H](O)[C@@H](O)[C@H]5O)[C@@H](O)[C@H](O)[C@H]4O)cc3O2)cc1O`
label 0

API: query returns whether the compound falls strictly under 90% in cell viability. Query: `CCCC[C@@H](C=O)NC(=O)[C@H](CC(C)C)NC(=O)OCc1ccccc1`
label 0

API: query returns whether the compound falls strictly under 90% in cell viability. Query: Cn1cc(C(=O)[C@@H]2CCc3[nH]cnc3C2)c2ccccc21 [Ramosetron Hydrochloride]
label 1

API: query returns whether the compound falls strictly under 90% in cell viability. Query: CC(C)(C)C1CCC(CC2=C(O)c3ccccc3C(=O)C2=O)CC1 (stereo unspecified)
label 1

###

# System: MARIMO
# TEST DETAILS: cell viability relative to vehicle control; higher = less cytotoxic
# APPLIED CONDITIONS: 10 µM; SRSF2 genotype: SRSF2 wt/wt
QUANTITY KIND: cell viability (%)
Please state the figure in %; there is no need to write the unit.

Would you please look over these solved cases?
# COMPOUND, REPORTED VALUE
records = [
    ("COc1cc2c(cc1OC)[C@@H]1Cc3ccc(OC)c(OC)c3CN1CC2 [Rotundine]", 91.1),
    ("CC(=O)SCC(Cc1ccccc1)C(=O)NCC(=O)OCc1ccccc1 (stereo not drawn) [Racecadotril (Acetorphan)]", 99),
]

Which cell viability reading was recorded for the compound O=c1c2ccccc2nc2n1CCc1c-2[nH]c2ccccc12 [Rutaecarpine (Rutecarpine)] ?
106
